- Test system: Jurkat
- test: Induction of apoptosis in Jurkat cells assessed as cell viability at 5 uM after 48 hrs by flow cytometry Annexin-V/propidium iodide assay
- Assay type: functional
- details: Homo sapiens, read-out: Activity
propertyName: viability at 5 µM (%)
# unit: % | format: bare number

Consider the reported viability at 5 µM for these molecules:
[[record]]
molecule = "Cc1n[nH]c2c1C(c1ccccc1)C1=C(COC1=O)N2 (stereo not drawn)"
propertyname = "viability at 5 µM"
reportedvalue = 10

[[record]]
molecule = "COc1cc([C@@H]2c3cc4c(cc3[C@H](O)[C@H]3COC(=O)[C@H]23)OCO4)cc(OC)c1OC [PODOFILOX]"
propertyname = "viability at 5 µM"
reportedvalue = 54

[[record]]
molecule = "COc1cc2c(cc1OC)C(c1cc(OC)c(OC)c(OC)c1)C1=C(O)OCC1=N2 (stereo not drawn)"
propertyname = "viability at 5 µM"
reportedvalue = 49

[[record]]
molecule = "Cc1n[nH]c2c1C(c1cccc(Cl)c1)C1=C(COC1=O)N2 (stereo not drawn)"
propertyname = "viability at 5 µM"
reportedvalue = 28

[[record]]
molecule = "Cc1n[nH]c2c1C(c1ccc(Br)cc1)C1=C(COC1=O)N2 (stereo not drawn)"
propertyname = "viability at 5 µM"
reportedvalue = 10


IN: Give the reported value of viability at 5 µM for this record: COc1cc(C2C3=C(COC3=O)Nc3[nH]nc(C)c32)cc(Br)c1OC (stereo not drawn)
OUT: 56

IN: Give the reported value of viability at 5 µM for this record: Cc1n[nH]c2c1C(c1ccncc1)C1=C(COC1=O)N2 (stereo not drawn)
OUT: 4

IN: Give the reported value of viability at 5 µM for this record: Cc1n[nH]c2c1C(c1c(C)nn(-c3ccccc3)c1Cl)C1=C(COC1=O)N2 (stereo not drawn)
OUT: 6

IN: Give the reported value of viability at 5 µM for this record: Cc1n[nH]c2c1C(c1cccc(Br)c1)C1=C(COC1=O)N2 (stereo not drawn)
OUT: 58

IN: Give the reported value of viability at 5 µM for this record: COc1cc(C2C3=C(COC3=O)Nc3c2c(-c2ccc(Br)cc2)nn3-c2ccccc2)cc(OC)c1OC (stereo not drawn)
OUT: 2

IN: Give the reported value of viability at 5 µM for this record: C=C(C)[C@@H]1CC=C(C2C3=C(COC3=O)Nc3[nH]nc(C)c32)CC1 (stereo partly drawn)
OUT: 14

IN: Give the reported value of viability at 5 µM for this record: Cc1n[nH]c2c1C(c1ccc(OC(F)(F)F)cc1)C1=C(COC1=O)N2 (stereo not drawn)
OUT: 9

IN: Give the reported value of viability at 5 µM for this record: CCOc1c(Br)cc(C2C3=C(COC3=O)Nc3[nH]nc(C)c32)cc1OC (stereo not drawn)
OUT: 49
